# protocolDetails: Measurement of molar absorption coefficient at 405 nm (JIS K0115:2004)
# Format: physicochemical
# conditionInfo: wavelength 405 nm; compound concentration 100 to 500 mmol/L in solvent
# From the text: The molar absorption coefficient of the compound A for light having a wavelength of 405 nm may be 100 mol^−1·L·cm^−1 or less, 10 mol^−1·L·cm^−1 or less, 1 mol^−1·L·cm^−1 or less, or 0.1 mol^−1·L·cm^−1 or less. […] The molar absorption coefficient can be measured by, for example, a method in accordance with the provision of Japanese Industrial Standards (JIS) K0115:2004. […]
Everything with Molar absorption coefficient ε lower than 70 L/mol/cm is Not met; everything else, including exactly 70 L/mol/cm, is Met.

Recorded results for 4 compounds are shown here.
q: Hi, just wondering whether "c1ccc2c(c1)Cc1c-2c2c(c3c1-c1ccccc1C3)-c1ccccc1C2" shows Molar absorption coefficient ε of 70 L/mol/cm or higher.
a: Not met

q: Hi, just wondering whether "C(#Cc1c(C#Cc2ccccc2)c(C#Cc2ccccc2)c(C#Cc2ccccc2)c(C#Cc2ccccc2)c1C#Cc1ccccc1)c1ccccc1" shows Molar absorption coefficient ε of 70 L/mol/cm or higher.
a: Met

q: Hi, just wondering whether "CC1(C)c2ccccc2-c2c1c1c(c3c2C(C)(C)c2ccccc2-3)C(C)(C)c2ccccc2-1" shows Molar absorption coefficient ε of 70 L/mol/cm or higher.
a: Not met

q: Hi, just wondering whether "COc1cc(-c2ccc(-c3ccc(C(=O)c4ccc(OCCOCCOC(C)=O)c(OCCOCCOC(C)=O)c4)cc3)c(OC)c2)ccc1-c1ccc(C(=O)c2ccc(OCCOCCOC(C)=O)c(OCCOCCOC(C)=O)c2)cc1" shows Molar absorption coefficient ε of 70 L/mol/cm or higher.
a: Not met

Then there is this compound:
q: Hi, just wondering whether "CCC1(CC)c2ccccc2-c2c1c1c(c3c2C(CC)(CC)c2ccccc2-3)C(CC)(CC)c2ccccc2-1" shows Molar absorption coefficient ε of 70 L/mol/cm or higher.
a: Not met
